Each recorded value in this set is attributed to paper PMC10397247.

# assayed.target: T1, 4H462-bH
# T1 chain: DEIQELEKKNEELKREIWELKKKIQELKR
# measurement.protocol: two-hybrid library CCNG1;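 note: natural log of median RNA to DNA barcode read ratio; higher means stronger binding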
readout: interaction score

[
  {
    "binder": "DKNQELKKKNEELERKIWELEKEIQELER [4H4001-bH]",
    "readout": "interaction score",
    "value.measured": -0.256
  },
  {
    "binder": "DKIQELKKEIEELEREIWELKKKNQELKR [4H2576-bH]",
    "readout": "interaction score",
    "value.measured": 0.615
  },
  {
    "binder": "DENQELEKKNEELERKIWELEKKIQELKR [4H1446-bH]",
    "readout": "interaction score",
    "value.measured": 0.0836
  },
  {
    "binder": "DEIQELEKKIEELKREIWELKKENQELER [4H331-bH]",
    "readout": "interaction score",
    "value.measured": 0.445
  }
]
